The reported measurements were obtained from the supplement of paper PMC10567573.

B1: TOR1AIP2 (parent)
chain: HHVADAYTSSQKVSPIQIDGAGRT

- Variants of: B1
- assay_method_text: protein stability index of a GFP-peptide fusion (GPS, HEK-293T) (PSI 1-6); higher = more stable;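 note: lentivirally expressed fusions sorted by FACS into six bins by GFP to DsRed ratio, PSI derived from sequencing read proportions per bin multiplied by bin number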
- condition_info: c terminus: a fixed tail appended
Reported protein stability index values follow for various variants
reported_property: protein stability index

| mutation_notation | endpoint_value |
| --- | --- |
| I18K | 3.98 |
| S9T | 2.82 |
| V13I | 2.83 |
| T8Y | 3.45 |
| H2I | 2.08 |
| Q11Y | 2.96 |
| S9Y | 3.78 |
| A21G | 3.62 |
| T24F | 2.81 |
| V13L | 3.56 |
| A4M | 4.01 |
| Q17I | 3.05 |
| T24C | 3.43 |
